Origin of measurements: patent US20260265244A1

Reported pIC50 values for a set of compounds
Molecular target: human STING WT (R232) (Homo sapiens, UniProt Q86WV6, H232R)
Construct: purchased Cisbio 64BDSTGPEG
Sequence (Q86WV6 138-379 H232R): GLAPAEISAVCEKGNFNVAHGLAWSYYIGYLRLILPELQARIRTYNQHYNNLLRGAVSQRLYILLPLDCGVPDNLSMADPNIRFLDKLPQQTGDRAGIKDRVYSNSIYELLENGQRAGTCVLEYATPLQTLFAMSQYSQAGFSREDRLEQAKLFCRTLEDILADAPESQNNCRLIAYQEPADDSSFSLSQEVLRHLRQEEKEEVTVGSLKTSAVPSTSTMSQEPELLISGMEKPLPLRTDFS
Experiment: Human STING HTRF binding assay (competitive, Cisbio 64BDSTGPEG)
pIC50: −log10 of the molar value.

{"columns": ["COMPOUND", "ASSAY_TARGET", "pIC50"],
 "data": [
  ["CC(C)c1nc2nn(C)cc2cc1-c1nc(-c2cccc3nn(CS(=O)(=O)c4ccccc4)cc23)c(C2CC2)n1C", "human STING WT (R232) (Homo sapiens, UniProt Q86WV6, H232R)", 7.47],
  ["Cc1nc2nn(CCCN3CCOCC3)cc2cc1-n1nc(-c2cccc3nn(C[C@H](F)c4ccccc4)cc23)c(C(C)C)c1C", "human STING WT (R232) (Homo sapiens, UniProt Q86WV6, H232R)", 7.65],
  ["CC(C)c1c(-c2cccc3nn(C[C@H](O)c4ccccc4)cc23)nc(-c2cc3cn(C)nc3nc2C(F)(F)F)n1C", "human STING WT (R232) (Homo sapiens, UniProt Q86WV6, H232R)", 7.60],
  ["Cc1nc2nn(CCCCO)cc2cc1-n1nc(-c2cccc3nn(C[C@H](O)c4ccccc4)cc23)c(C(C)C)c1C", "human STING WT (R232) (Homo sapiens, UniProt Q86WV6, H232R)", 8.36],
  ["Cc1c(C(C)C)c(-c2cccc3nn(C[C@H](O)c4ccccc4)cc23)nn1-c1cc2cn(C)nc2nc1C1(F)CC1", "human STING WT (R232) (Homo sapiens, UniProt Q86WV6, H232R)", 7.77],
  ["Cc1c(C(C)C)c(-c2cccc3nn(C[C@H](O)c4ccccc4)cc23)nn1-c1cc2cn(C)nc2nc1CN1CCOCC1", "human STING WT (R232) (Homo sapiens, UniProt Q86WV6, H232R)", 7.37],
  ["Cc1cc([C@@H](O)Cn2cc3c(-c4nn(-c5cc6cn(C)nc6nc5C)c(C)c4C(C)C)cccc3n2)ccn1", "human STING WT (R232) (Homo sapiens, UniProt Q86WV6, H232R)", 8.49],
  ["COCCO[C@@H](Cn1cc2c(-c3nn(-c4cc5cn(C)nc5nc4C)c(C)c3C(C)C)cccc2n1)c1ccccc1", "human STING WT (R232) (Homo sapiens, UniProt Q86WV6, H232R)", 7.80],
  ["Cc1nc2nn(Cc3cccnc3)cc2cc1-n1nc(-c2cccc3nn(C[C@H](O)c4ccccc4)cc23)c(C(C)C)c1C", "human STING WT (R232) (Homo sapiens, UniProt Q86WV6, H232R)", 7.85],
  ["Cc1c(C(C)C)c(-c2cccc3nn(C[C@H](O)c4ccccc4)cc23)nn1-c1cc2cn(C)nc2nc1C1(C)CC1", "human STING WT (R232) (Homo sapiens, UniProt Q86WV6, H232R)", 7.76],
  ["Cn1c(-c2cc3cn(CCCN4CCCC4=O)nc3nc2C2CC2)nc(-c2cccc3nn(C[C@H](O)c4ccccc4)cc23)c1C1CC1", "human STING WT (R232) (Homo sapiens, UniProt Q86WV6, H232R)", 8.08],
  ["Cc1c(C(C)C)c(-c2cccc3nn(C[C@H](O)c4ccc(OCCN5CCOCC5)cc4)cc23)nn1-c1cc2cn(C)nc2nc1C1CC1", "human STING WT (R232) (Homo sapiens, UniProt Q86WV6, H232R)", 7.72],
  ["Cc1c(-n2nc(-c3cccc4nn(C[C@H](O)c5ccccc5)cc34)c(C(C)C)c2C)ccn2c(C)nnc12", "human STING WT (R232) (Homo sapiens, UniProt Q86WV6, H232R)", 8.16],
  ["Cc1nc2nn(C)cc2cc1-n1nc(-c2cccc3nn(C[C@H](O)c4ccccc4)cc23)c(C(C)CO)c1C (some centres unmarked)", "human STING WT (R232) (Homo sapiens, UniProt Q86WV6, H232R)", 7.94]
]}

* * *

Biological target: human STING WT (R232) (Homo sapiens, UniProt Q86WV6, H232R)
Construct: purchased Cisbio 64BDSTGPEG
Experiment: Human STING HTRF binding assay (competitive, Cisbio 64BDSTGPEG)
Reported IC50 values for a set of molecules
EXPERIMENTAL_ENDPOINT: IC50 (nM)

{"columns": ["MOLECULE", "EXPERIMENTAL_ENDPOINT", "UNIT_ANNOTATION", "REPORTED_VALUE"],
 "data": [
  ["Cc1nc2nn(C)cc2cc1-n1nc(-c2cccc3nn(CC(O)C4CCCCC4)cc23)c(C(C)C)c1C (centres unmarked)", "IC50", "nM", 23.7],
  ["Cn1c(-c2cc3cn(CCC#N)nc3nc2C2CC2)nc(-c2cccc3nn(C[C@H](O)c4ccccc4)cc23)c1C1CC1", "IC50", "nM", 2],
  ["Cc1nc2nn(CC(F)F)cc2cc1-n1nc(-c2cccc3nn(C[C@H](O)c4ccccc4)cc23)c(C(C)C)c1C", "IC50", "nM", 9.3],
  ["Cc1c(C(C)C)c(-c2cccc3nn(C[C@H](O)c4ccccc4)cc23)nn1-c1cc2cn(C)nc2nc1C1CCC1", "IC50", "nM", 28.6],
  ["Cn1cc2cc(-c3nc(-c4cccc5nn(C[C@H](O)c6ccc(OCC#N)cc6)cc45)c(C4CC4)n3C)c(C3CC3)nc2n1", "IC50", "nM", 19.9],
  ["CNC(=O)CO[C@@H](Cn1cc2c(-c3nn(-c4cc5cn(C)nc5nc4C)c(C)c3C(C)C)cccc2n1)c1ccccc1", "IC50", "nM", 14.6],
  ["Cc1c(C(C)C)c(-c2cccc3nn(C[C@H](O)c4ccccc4)cc23)nn1-c1cc2cn(C)nc2nc1C(C)(C)O", "IC50", "nM", 17.2],
  ["Cc1nc2cc(C)c(-n3nc(-c4cccc5nn(C[C@H](O)c6ccccc6)cc45)c(C(C)C)c3C)cc2[nH]1", "IC50", "nM", 78.1],
  ["Cc1c(C(C)C)c(-c2cccc3nn(C[C@H](O)c4ccccc4)cc23)nn1-c1cc2cn(C)nc2[n+]([O-])c1C1CC1", "IC50", "nM", 16.3],
  ["Cn1cc2cc(-c3nc(-c4cccc5nn(C[C@H](O)c6ccc(OC7COC7)cc6)cc45)c(C4CC4)n3C)c(C3CC3)nc2n1", "IC50", "nM", 7.5],
  ["COC(C)c1nc2nn(C)cc2cc1-n1nc(-c2cccc3nn(C[C@H](O)c4ccccc4)cc23)c(C(C)C)c1C (some centres unmarked) [Example 58]", "IC50", "nM", 15.8],
  ["Cn1cc2cc(-c3nc(-c4cccc5nn(C[C@H](O)c6ccc(OCCC(C)(C)O)cc6)cc45)c(C4CC4)n3C)c(C3CC3)nc2n1", "IC50", "nM", 6.4],
  ["CCO[C@@H](Cn1cc2c(-c3nn(-c4cc5cn(C)nc5nc4C)c(C)c3C(C)C)cccc2n1)c1ccccc1", "IC50", "nM", 18.2],
  ["Cc1c(C(C)C)c(-c2cccc3nn(C[C@H](O)c4ccccc4)cc23)nn1-c1cc2cn(C)nc2nc1C(C)O (some centres unmarked)", "IC50", "nM", 16.1]
]}

* * *

Molecular target: cGAMP binding domain of wild-type (GRR) human STING, residues 155-341 (Homo sapiens, UniProt Q86WV6, H232R)
Construct: His-TEV-hSTING (WT); TEV protease cleavage site (N); made in house; host or cells: E. coli BL21 DE3
Sequence (Q86WV6 with tags, fused parts or gaps H232R): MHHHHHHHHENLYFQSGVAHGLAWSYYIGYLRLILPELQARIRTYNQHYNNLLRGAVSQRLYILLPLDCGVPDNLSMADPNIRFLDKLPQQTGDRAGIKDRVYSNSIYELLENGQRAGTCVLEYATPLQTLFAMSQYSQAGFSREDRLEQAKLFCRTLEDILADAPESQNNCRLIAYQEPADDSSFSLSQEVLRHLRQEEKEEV
Assay: Increase of stability of STING protein against thermal denaturation, Differential Scanning Fluorimetry (DSF)
EXPERIMENTAL_ENDPOINT: DSF (K)

{"columns": ["COMPOUND", "UNIT_ANNOTATION", "REPORTED_VALUE"],
 "data": [
  ["Cc1nc2nn(CCN(C)C)cc2cc1-n1nc(-c2cccc3nn(C[C@H](O)c4ccccc4)cc23)c(C(C)C)c1C [Example 39]", "K", 25],
  ["Cc1nc2nn(CCCN3CCCC3=O)cc2cc1-n1nc(-c2cccc3nn(C[C@H](O)c4ccccc4)cc23)c(C(C)C)c1C [Example 21]", "K", 30],
  ["Cc1nc2nn(C)cc2cc1-n1nc(-c2cccc3nn(C[C@H](O)c4ccccc4)cc23)c(C2(C)CC2)c1C [Example 92]", "K", 24],
  ["Cc1nc2nn(CP(C)(C)=O)cc2cc1-n1nc(-c2cccc3nn(C[C@H](O)c4ccccc4)cc23)c(C(C)C)c1C [Example 77]", "K", 27]
]}

* * *

Molecular target: cGAMP binding domain of wild-type (GRR) human STING, residues 155-341 (Homo sapiens, UniProt Q86WV6, H232R)
Construct: His-TEV-hSTING (WT); TEV protease cleavage site (N); made in house; host or cells: E. coli BL21 DE3
Assay: Increase of stability of STING protein against thermal denaturation, Differential Scanning Fluorimetry (DSF)
Protocol: Dye fluorescence is quenched in aqueous environment and increases upon association of the dye with the hydrophobic parts of the unfolding protein. […] The inflection point of the curve represents the “melting” temperature of the protein (Tm) which is calculated numerically using the Boltzmann equation. […] Two replicates of TM measurements were averaged, and the standard deviation was calculated. […]
EXPERIMENTAL_ENDPOINT: DSF (K)

{"columns": ["COMPOUND", "REPORTED_VALUE"],
 "data": [
  ["Cc1c(C(C)C)c(-c2cccc3nn(C[C@H](O)c4ccccc4)cc23)nn1-c1cc2cn(C)nc2nc1C(C)(C)C", 23],
  ["CNCc1nc2nn(C)cc2cc1-n1nc(-c2cccc3nn(C[C@H](O)c4ccccc4)cc23)c(C(C)C)c1C", 26],
  ["Cc1c(C(C)C)c(-c2cccc3nn(C[C@H](O)c4ccccc4)cc23)nn1-c1cc2cn(C)nc2nc1OCCO", 26],
  ["COC(C)c1nc2nn(C)cc2cc1-n1nc(-c2cccc3nn(C[C@H](O)c4ccccc4)cc23)c(C(C)C)c1C (some centres unmarked) [Example 58]", 28],
  ["COC(C)c1nc2nn(C)cc2cc1-n1nc(-c2cccc3nn(C[C@H](O)c4ccccc4)cc23)c(C(C)C)c1C (some centres unmarked) [Example 75]", 28],
  ["Cc1nc2nn(CC3COCCO3)cc2cc1-n1nc(-c2cccc3nn(C[C@H](O)c4ccccc4)cc23)c(C(C)C)c1C (some centres unmarked)", 27],
  ["CC(C)c1nc2nn(C)cc2cc1-c1nc(-c2cccc3nn(C[S@@+]([O-])c4ccccc4)cc23)c(C2CC2)n1C", 33],
  ["Cc1nc2nn(C)cc2cc1-n1nc(-c2cccc3nn(C[C@H](OCCCCO)c4ccccc4)cc23)c(C(C)C)c1C", 23],
  ["CC(C)c1c(-c2cccc3nn(C[C@H](O)c4ccccc4)cc23)nc(-c2cc3cn(C)nc3nc2C(F)(F)F)n1C", 27],
  ["Cc1nc2nn(Cc3cccnc3)cc2cc1-n1nc(-c2cccc3nn(C[C@H](O)c4ccccc4)cc23)c(C(C)C)c1C", 29],
  ["Cc1nc2nn(C)cc2cc1-n1nc(-c2cccc3nn(CC(O)C4CCCCC4)cc23)c(C(C)C)c1C (centres unmarked)", 24],
  ["Cc1c(C(C)C)c(-c2cccc3nn(C[C@H](O)c4ccccc4)cc23)nn1-c1cc2cn(C)nc2nc1N(C)C", 24],
  ["Cc1c(C(C)C)c(-c2cccc3nn(C[C@H](O)c4ccccc4)cc23)nn1-c1cc2cn(C)nc2nc1C1CCC1", 30],
  ["Cc1nc2nn(CCCCO)cc2cc1-n1nc(-c2cccc3nn(C[C@H](O)c4ccccc4)cc23)c(C(C)C)c1C", 29]
]}
